Source: patent US20180186897A1

Target: erythrocytes infected with P. falciparum field isolate 9106
Assay: flow cytometry, staining of IEs
measurement type: % parasite recognition (%)

- binder: "MGD34 (antibody) VH: EVQLVESGPGLMKTSGTLSLTCAVSGDYVNTNRRWSWVRQAPGKGLEWIGEVHQSGRTNYNPSLKSRVTISVDKSKNQFSLKVDSVTAADTAVYYCARASPLKSQRDTEDLPRPSISAEPGTVIPLGSHVTFVCRGPVGVQTFRLERERNYLYSDTEDVSQTSPSESEARFRIDSVNAGNAGLFRCIYYKSRKWSEQSDYLELVVKGEDVTWALSQSQVDPRACPQGELPISTDIYYVDVWGNGTTFTVSS VL: AIRMTQSPSSLSASPGDKVSITCRASQHINDSLAWFQQRPGKAPKLLIYGASNLHSGVPSRFSGTGSGTDFTLTITGLQSEDFATYFCQQCNCFPPDFGQGTRLEIK"
  units symbol: "%"
  readout value: 5
